Target: full length Aurora-A (AA 1-403) (Homo sapiens, UniProt O14965)
Sequence (O14965 whole entry, the tested form may be a part): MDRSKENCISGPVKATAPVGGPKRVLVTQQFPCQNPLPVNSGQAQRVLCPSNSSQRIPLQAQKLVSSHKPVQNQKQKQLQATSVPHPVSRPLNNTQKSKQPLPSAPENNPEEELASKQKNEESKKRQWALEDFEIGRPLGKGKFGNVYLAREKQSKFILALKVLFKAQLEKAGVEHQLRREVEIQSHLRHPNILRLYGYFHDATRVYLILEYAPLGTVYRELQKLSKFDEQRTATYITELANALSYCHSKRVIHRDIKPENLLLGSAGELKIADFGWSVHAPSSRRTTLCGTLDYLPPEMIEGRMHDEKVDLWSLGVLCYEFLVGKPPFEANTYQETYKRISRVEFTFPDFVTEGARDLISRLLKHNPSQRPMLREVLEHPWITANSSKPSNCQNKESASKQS
measurement-type: Ki

1) C[C@H](Nc1nc(-c2c[nH]c3ncc(Cl)nc23)ncc1F)c1ccc(F)cc1    < 200 nM
